src = PubChem BioAssay (NCI)

Tested on: T-47D breast
assay explanation: NCI-60 one-dose screen, 48 h
measurement context: 10 µM unless noted
Description: Growth inhibition of the T-47D human tumor cell line is measured as a screen for anti-cancer activity. Cells are grown in 96 well plates and exposed to the test compound for 48 hours. Compounds are tested at a single concentration, which is 10^-5 M for most compounds. The reported endpoint is percent growth (GI% or GIPRCNT), where numbers from 0 - 100% represent growth inhibition, and numbers from -100% - 0 represent cell death. For example, a value of 40 represents 60% growth inhibition. […]
This is part of a sample that, as a whole, favours compounds with a hit. Of some 83,000 tested, about 20% had one in any assay. Activity calls are given as the source filed them. Rule for the calls: active = growth percent below 10; inactive = the rest.
Labels: 1 (yes) for active, 0 (no) for inactive

molecule=O=[N+]([O-])c1ccc(Sc2ncccn2)c([N+](=O)[O-])c1 classification="0 (no)"
molecule=O=C(NCCCNc1nccc(-n2ccc3cccnc32)n1)c1c(F)cccc1F classification="0 (no)"
molecule=COc1ccc(-c2nc(/C=N/Nc3cc(C)nc4ccc(Br)cc34)c(C)o2)cc1 classification="1 (yes)"
molecule=COc1ccc(-c2ccc(-c3ccc(-c4ccc(C(=N)N)cc4)s3)s2)cc1OC classification="0 (no)"
molecule=O=C(Nc1ccncc1)C(=O)c1cn(S(=O)(=O)c2ccc(Oc3ccccc3)cc2)c2ccccc12 classification="0 (no)"
molecule=O=C(O)c1cn(C2CC2)c2cc(N3CCN(C(=O)/C=C/c4ccc(Cl)cc4)CC3)c(F)cc2c1=O classification="0 (no)"
molecule=O=C(Nc1cccc(-n2cc(-c3ccncc3)c(-c3ccc(Cl)c(O)c3)n2)c1)Nc1cccc(C(F)(F)F)c1 classification="0 (no)"
molecule=COc1cc(/C=C/c2cc(/C=C/c3ccc(O)c(OC)c3)n(C(N)=O)n2)ccc1O classification="1 (yes)"
molecule=O=C1NC(=C(Cl)Cl)/C(=N/S(=O)(=O)N2CCC(C3(C(F)(F)F)N=N3)CC2)N1 classification="0 (no)"
molecule=CCCCCCCCN(CCCCCCCC)CCCCCCNc1cc(OC)cc2cccnc12 classification="0 (no)"
molecule="COc1cc(C2NN=C3c4ccccc4CCC32)cc(OC)c1OC (centres undefined)" classification="0 (no)"
molecule=Cc1ccc(S(=O)(=O)NCCCNc2cc(-c3cn(C(C)(C)C)nc3-c3cccc(O)c3)ccn2)cc1 classification="0 (no)"
molecule=COc1ccc(/C=C\c2cc(OC)c(OC)c(OC)c2)cc1OC(=O)c1cccc(Cn2cc(CCOC(=O)c3cccc(Cn4nnc5c4C(=O)c4ccccc4C5=O)c3)nn2)c1 classification="0 (no)"
molecule=COc1cc(/C(C#N)=C/c2ccc3c(c2OC)OCO3)cc2c1OCO2 classification="0 (no)"

* * *

Tested on: DU-145 prostate
assay explanation: NCI-60 one-dose screen, 48 h
measurement context: 10 µM unless noted
The panel holds about 83,000 compounds, 20% with a hit somewhere; the sample as a whole holds those more often. Activity calls are given as the source filed them. The calls were made as follows: active = growth percent below 10; inactive = the rest.
Labels: active, inactive

compound=COc1cc(NC(N)=NCCC(C)(C)Oc2ccc(C(F)(F)F)cc2)ncc1C#N classification=active
compound=CCOC(=O)/C(C#N)=C1/C(=O)Nc2ccccc21 classification=inactive
compound=CC(C)(C)n1cc(-c2ccnc(NCCCNS(=O)(=O)c3ccc(Br)cc3)c2)c(-c2cccc(O)c2)n1 classification=inactive
compound=COc1ccc(/C=C\c2cc(OC)c(OC)c(OC)c2)cc1OC(=O)c1cccc(Cn2cc(CCOC(=O)c3cccc(Cn4nnc5c4C(=O)c4ccccc4C5=O)c3)nn2)c1 classification=active
compound="COc1cc(C2NN=C3c4ccccc4CCC32)cc(OC)c1OC (stereo unspecified)" classification=inactive
compound="CN(C)c1oc(C2OC2c2ccccc2)nc1C#N (stereo unspecified)" classification=inactive
compound=Cc1[nH]c2ccc(F)cc2c1CCNC(=O)C1CCN(C(=O)c2ccccc2)CC1 classification=inactive
compound=C=C[C@@H]1C[C@@H]2Cc3c(C)cc(C)cc3N1O2 classification=inactive
compound=COc1ccc2cc(-c3ccc(-c4ccc(C(=N)N)cc4)s3)ccc2c1 classification=inactive
compound=COc1cc(/C=C/C(=O)c2cccc(-n3cc(-c4cc(OC)c(OC)c(OC)c4)[nH]c3=O)c2)cc(OC)c1OC classification=inactive
compound=COc1ccc(-c2nc3sc(-c4cc(OC)c(OC)c(OC)c4)nn3c2/C=C2/C(=O)Nc3ccc(F)cc32)cc1 classification=active
compound=COC(=O)c1cccc2c1N(C)c1c(cccc1C(=O)OC)CC2 classification=inactive
compound=CCCCN(CCCC)C(=N)c1ccnc2ccccc12 classification=inactive
compound=Nc1cccc(-c2nc3sccn3c2-c2ccnc(NCCCNS(=O)(=O)c3cccc4ccccc34)n2)c1 classification=inactive
compound=CN1CCN(Cc2ccc(NC(=O)c3cncc(C#Cc4cnc(N)c5ccncc45)c3)cc2C(F)(F)F)CC1 classification=inactive
compound=COc1cccc(-c2cc3c(O)cc(C#N)cc3[nH]2)c1 classification=inactive
